- Tested on: H1975
- assay: CCK-8 proliferation, NCI-H1975 (H1975)
- Type: cell-based, Human
- assayConditions: Homo sapiens, NCI-H1975; CCK-8; 96 hours; read-out: Inhibitory activity (IC50) on tumor cell proliferation, H1975
testReadout: IC50

Worked examples follow.
{"columns": ["molecule", "IC50"],
 "data": [
  ["O=C1CCN(c2cc(CN3C[C@H]4C[C@@H]3CN4c3ccc(-c4cc(F)c5c(c4)C(=O)N(C(C(=O)Nc4nccs4)c4ncn6c4CCC6)C5)cc3)c(F)cn2)C(=O)N1 (stereo partly drawn)", "1 to 10 nM"],
  ["O=C1CCC(c2ccc(CN3CCC(N4CCN(c5ccc(-c6cc(F)c7c(c6)C(=O)N(C(C(=O)Nc6nccs6)c6ncn8c6CCC8)C7)cc5)CC4)CC3)cc2)C(=O)N1 (stereo not drawn)", "10 to 50 nM"]
]}

Dear colleague, could you send me IC50 for each of the items below? Thanks.
1. Cc1nc2c(F)cc(-c3nc(Nc4ccc(CN5CCN(Cc6cccc(N7CCC(=O)NC7=O)c6)CC5)cn4)ncc3F)cc2n1C(C)C
2. O=C1CCC(Nc2cccc(CN3CCN(C4CCN(c5ccc(-c6cc(F)c7c(c6)C(=O)N(C(C(=O)Nc6nccs6)c6ncn8c6CCC8)C7)cc5)CC4)CC3)c2)C(=O)N1 (stereo not drawn)

1: 500 to 1000 nM; 2: 10 to 50 nM

Return reported IC50 values for all items listed beneath this line.
1. Cc1nc2c(F)cc(-c3nc(Nc4ccc(N5CCC(N6CCN(Cc7ccc(N8CCC(=O)NC8=O)cn7)CC6)CC5)cn4)ncc3F)cc2n1C(C)C
2. CN1CCN([C@@H]2CCCN(c3cnc(C(N)=O)c(Nc4ccc(C5CCN(Cc6ccc(N7CCC(=O)NC7=O)c(F)c6)CC5)cc4)n3)C2)C1=O

1: 100 to 500 nM; 2: 500 to 1000 nM

---

- System: CCRF-CEM
- assay: CCK-8 proliferation, CCRF-CEM
- Assay type: cell-based, Human
- assayConditions: Homo sapiens, CCRF-CEM; CCK-8; 96 hours; read-out: Inhibitory activity (IC50) on tumor cell proliferation, CCRF-CEM
testReadout: IC50

Example results:
{"columns": ["compound", "experimentalSystem", "IC50"],
 "data": [
  ["Cc1nc2c(F)cc(-c3nc(Nc4ccc(N5CCC(N(C)Cc6ccc(N7CCC(=O)NC7=O)cn6)CC5)cn4)ncc3F)cc2n1C(C)C [GT-06840]", "CCRF-CEM", "100 to 500 nM"],
  ["Cc1nc2c(F)cc(-c3nc(Nc4ccc(N5CCC(N(C)Cc6ccc(N7CCC(=O)NC7=O)cc6)CC5)cn4)ncc3F)cc2n1C(C)C [GT-06838]", "CCRF-CEM", "100 to 500 nM"],
  ["CNC(=O)c1ccccc1Nc1cc(Nc2ccc(N3CCN(Cc4ccc(C5CCC(=O)NC5=O)cc4)CC3)cc2OC)ncc1C(F)(F)F (stereo not drawn) [GT-03715]", "CCRF-CEM", "500 to 1000 nM"],
  ["Cc1nc2c(F)cc(-c3nc(Nc4ccc(N5CCC(N(C)Cc6ccc(N7CCC(=O)NC7=O)nc6)CC5)cn4)ncc3F)cc2n1C(C)C [GT-06841]", "CCRF-CEM", "100 to 500 nM"],
  ["Cc1nc2c(F)cc(-c3nc(Nc4ccc(N5CCC(N6CCN(Cc7cc(N8CCC(=O)NC8=O)ncc7F)CC6)CC5)cn4)ncc3F)cc2n1C(C)C [GT-07486]", "CCRF-CEM", "100 to 500 nM"],
  ["Cc1nc2c(F)cc(-c3nc(Nc4ccc(N5CCC(N6CCN(Cc7ccc(N8CCC(=O)NC8=O)nc7)CC6)CC5)cn4)ncc3F)cc2n1C(C)C [GT-06742]", "CCRF-CEM", "50 to 100 nM"],
  ["CNC(=O)c1ccccc1Nc1cc(Nc2ccc(N3CCC(N4CCN(Cc5ccc(C6CCC(=O)NC6=O)cc5)CC4)CC3)cc2OC)ncc1C(F)(F)F (stereo not drawn) [GT-03599]", "CCRF-CEM", "100 to 500 nM"],
  ["Cc1cc(S(=O)(=O)N2CCN(Cc3ccc(N4CCC(=O)NC4=O)nc3)CC2)ccc1Nc1ncc(Br)c(Nc2cccc(F)c2C(N)=O)n1 [GT-06834]", "CCRF-CEM", "500 to 1000 nM"],
  ["CC1(C)CCC(c2ccc(Cl)cc2)=C(CN2CCN(c3ccc(C(=O)NS(=O)(=O)c4ccc(N[C@H](CCN5CCN(Cc6ccnc(N7CCC(=O)NC7=O)c6)CC5)CSc5ccccc5)c(S(=O)(=O)C(F)(F)F)c4)cc3)CC2)C1 [GT-07717]", "CCRF-CEM", "10 to 50 nM"],
  ["Nc1nc(Nc2ccc(S(=O)(=O)N3CCN(Cc4ccc(N5CCC(=O)NC5=O)nc4)CC3)cc2)nn1C(=O)c1c(F)cccc1F [GT-06754]", "CCRF-CEM", "500 to 1000 nM"]
]}

Look up IC50 for the entries below, preserving their order.
1. Cc1nc2c(F)cc(-c3nc(Nc4ccc(N5CCC(N6CCN(Cc7cncc(N8CCC(=O)NC8=O)c7)CC6)CC5)cn4)ncc3F)cc2n1C(C)C [GT-07488]
2. Cc1nc2c(F)cc(-c3nc(Nc4ccc(N5CCC(N6CCN(Cc7ccc(C8CCC(=O)NC8=O)cc7)CC6)CC5)cn4)ncc3F)cc2n1C(C)C (stereo not drawn) [GT-03905]

100 to 500 nM
100 to 500 nM
